- Test system: spontaneously hypertensive rats (SHR)
- ASSAY TEXT: Antihypertensive activity in spontaneously hypertensive rats, systolic blood pressure by tail cuff
- Type: in vivo, rat
- EXPERIMENTAL CONTEXT: oral dose of 50 mg/kg, after 4 hours
Measured decrease in systolic blood pressure from control values by item

Take a look at these entries with their results.
CC(CCc1ccc2c(c1)OCO2)NCC(O)c1ccc(O)c(C(N)=O)c1.Cl (stereo not shown) [compound 2]	64 mm Hg
Cc1ccc(N(CC2=NCCN2)c2cccc(O)c2)cc1 [phentolamine]	60 mm Hg

Kindly review the next molecule as well.
Give its decrease in systolic blood pressure from control values value. Item: COc1ccc(C(O)CNC(C)CCc2ccc3c(c2)OCO3)cc1C(N)=O.Cl (stereo not shown) [compound 1]
67 mm Hg
